Measured log10 of MIC values are reported for all entries that follow.
# System: Aspergillus fumigatus
# experiment notes: Antifungal activity against Aspergillus fumigatus ATCC 13073 by broth dilution method
# Format: functional
endpoint label: log10 of MIC (log10 of the value in µg/mL)

- Cl.N=C(N)N/N=C/c1ccc(-c2ccc(F)cc2)s1: 1.40
- Cl.N=C(N)N/N=C/c1ccc(-c2ccccc2)o1: 2.10
- COc1ccc(-c2ccc(/C=N/NC(=N)N)s2)cc1.Cl: 1.40
- Cl.Cl.N=C(N)N/N=C/c1ccc(-c2ccncc2)s1: 2.40
- O=Cc1ccc(-c2ccccc2)s1: 2.10
- Cl.Cl.N=C(N)N/N=C/c1ccc(-c2ccc(-c3ccc(/C=N/NC(=N)N)cc3)s2)cc1: 1.40
- Cl.Cl.N=C(N)N/N=C/c1ccc(-c2ccc(/C=N/NC(=N)N)s2)cc1: 1.40
- Cl.N#Cc1ccc(-c2ccc(/C=N/NC(=N)N)s2)cc1: 1.40
- Cl.N=C(N)N/N=C/c1ccc(-c2ccccc2)s1: 1.40
- Cl.N=C(N)N/N=C/c1ccc(-c2ccc(Br)cc2)s1: 0.80
- Cc1ccc(-c2ccc(/C=N/NC(=N)N)s2)cc1.Cl: 0.80
- C[C@@H](c1ncncc1F)[C@](O)(Cn1cncn1)c1ccc(F)cc1F [VORICONAZOLE]: -1.22

====

# Species on record: Danio rerio
# experiment notes: Toxicity against zebrafish embryo assessed as normal embryos at 50 ug/ml measured at 96 hrs post fertilization by inverted microscopic analysis
# Assay type: organism-based
# experimental conditions: in vivo
endpoint label: Activity (%)

* Cl.N=C(N)N/N=C/c1ccc(-c2ccc(Br)cc2)s1 | 0
* Cl.Cl.N=C(N)N/N=C/c1ccc(-c2ccc(/C=N/NC(=N)N)s2)cc1 | 96.67
* Cc1ccc(-c2ccc(/C=N/NC(=N)N)s2)cc1.Cl | 0
* C[C@@H](c1ncncc1F)[C@](O)(Cn1cncn1)c1ccc(F)cc1F | 0

====

# Organism: Danio rerio
# experiment notes: Toxicity against zebrafish embryo assessed as teratogenic embryos at 10 ug/ml measured at 96 hrs post fertilization by inverted microscopic analysis
# Assay type: organism-based
# experimental conditions: in vivo
endpoint label: Activity (%)

- C[C@@H](c1ncncc1F)[C@](O)(Cn1cncn1)c1ccc(F)cc1F: 0
- Cl.Cl.N=C(N)N/N=C/c1ccc(-c2ccc(/C=N/NC(=N)N)s2)cc1: 0
- Cl.N=C(N)N/N=C/c1ccc(-c2ccc(Br)cc2)s1: 23.33
- Cc1ccc(-c2ccc(/C=N/NC(=N)N)s2)cc1.Cl: 50

====

# Species on record: Danio rerio
# experiment notes: Toxicity against zebrafish embryo assessed as effect on heart beat at 5 ug/ml measured at 96 hrs post fertilization by inverted microscopic analysis
# Assay type: organism-based
# experimental conditions: in vivo
endpoint label: Activity (%)

* Cl.N=C(N)N/N=C/c1ccc(-c2ccc(Br)cc2)s1 | 0
* Cc1ccc(-c2ccc(/C=N/NC(=N)N)s2)cc1.Cl | 0
* Cl.Cl.N=C(N)N/N=C/c1ccc(-c2ccc(/C=N/NC(=N)N)s2)cc1 | 0
* C[C@@H](c1ncncc1F)[C@](O)(Cn1cncn1)c1ccc(F)cc1F | 100

====

# experiment notes: Toxicity against zebrafish embryo assessed as dead embryos at 5 ug/ml measured at 96 hrs post fertilization by inverted microscopic analysis
# Format: organism-based, Danio rerio
# experimental conditions: read-out: Activity
Measured mortality at 96 h, 5 ug/ml values are reported for all entries that follow.
endpoint label: mortality at 96 h, 5 ug/ml

* Cc1ccc(-c2ccc(/C=N/NC(=N)N)s2)cc1.Cl | 20%
* C[C@@H](c1ncncc1F)[C@](O)(Cn1cncn1)c1ccc(F)cc1F [VORICONAZOLE] | 80%
* Cl.N=C(N)N/N=C/c1ccc(-c2ccc(Br)cc2)s1 | 10%
* Cl.Cl.N=C(N)N/N=C/c1ccc(-c2ccc(/C=N/NC(=N)N)s2)cc1 | 0%

====

# Species: Danio rerio
# experiment notes: Toxicity against zebrafish embryo assessed as head malformation at 5 ug/ml measured at 96 hrs post fertilization by inverted microscopic analysis
# Type: organism-based
# experimental conditions: in vivo
Measured Activity values are reported for all entries that follow.
endpoint label: Activity (%)

• Cl.Cl.N=C(N)N/N=C/c1ccc(-c2ccc(/C=N/NC(=N)N)s2)cc1 = 0
• C[C@@H](c1ncncc1F)[C@](O)(Cn1cncn1)c1ccc(F)cc1F [VORICONAZOLE] = 100
• Cl.N=C(N)N/N=C/c1ccc(-c2ccc(Br)cc2)s1 = 0
• Cc1ccc(-c2ccc(/C=N/NC(=N)N)s2)cc1.Cl = 100

====

# experiment notes: Toxicity against zebrafish embryo assessed as dead embryos at 2.5 ug/ml measured at 96 hrs post fertilization by inverted microscopic analysis
# Type: organism-based, Danio rerio
# experimental conditions: read-out: Activity
endpoint label: mortality at 96 h, 2.5 ug/ml

- Cl.Cl.N=C(N)N/N=C/c1ccc(-c2ccc(/C=N/NC(=N)N)s2)cc1: 0%
- Cc1ccc(-c2ccc(/C=N/NC(=N)N)s2)cc1.Cl: 10%
- Cl.N=C(N)N/N=C/c1ccc(-c2ccc(Br)cc2)s1: 0%
- C[C@@H](c1ncncc1F)[C@](O)(Cn1cncn1)c1ccc(F)cc1F: 36.7%

====

# Species: Danio rerio
# experiment notes: Toxicity against zebrafish embryo assessed as normal embryos at 10 ug/ml measured at 96 hrs post fertilization by inverted microscopic analysis
# Assay type: organism-based
# experimental conditions: in vivo
Measured Activity values are reported for all entries that follow.
endpoint label: Activity

* Cl.N=C(N)N/N=C/c1ccc(-c2ccc(Br)cc2)s1 | 46.67%
* C[C@@H](c1ncncc1F)[C@](O)(Cn1cncn1)c1ccc(F)cc1F | 0%
* Cl.Cl.N=C(N)N/N=C/c1ccc(-c2ccc(/C=N/NC(=N)N)s2)cc1 | 100%
* Cc1ccc(-c2ccc(/C=N/NC(=N)N)s2)cc1.Cl | 0%

====

# Species on record: Danio rerio
# experiment notes: Toxicity against zebrafish embryo assessed as effect on eyes at 5 ug/ml measured at 96 hrs post fertilization by inverted microscopic analysis
# Type: organism-based
# experimental conditions: in vivo
Measured Activity values are reported for all entries that follow.
endpoint label: Activity

- Cl.Cl.N=C(N)N/N=C/c1ccc(-c2ccc(/C=N/NC(=N)N)s2)cc1: 0%
- C[C@@H](c1ncncc1F)[C@](O)(Cn1cncn1)c1ccc(F)cc1F: 100%
- Cc1ccc(-c2ccc(/C=N/NC(=N)N)s2)cc1.Cl: 0%
- Cl.N=C(N)N/N=C/c1ccc(-c2ccc(Br)cc2)s1: 0%

====

Measured MIC values are reported for all entries that follow.
# System: Trichophyton mentagrophytes
# experiment notes: Antifungal activity against Trichophyton mentagrophytes DMT4 by broth dilution method
# Type: functional
endpoint label: MIC

- COc1ccc(-c2ccc(/C=N/NC(=N)N)s2)cc1.Cl: 3.12 µg/mL
- O=Cc1ccc(-c2ccccc2)s1: 250 µg/mL
- Cl.N=C(N)N/N=C/c1ccc(-c2ccccc2)s1: 3.12 µg/mL
- Cl.Cl.N=C(N)N/N=C/c1ccc(-c2ccc(/C=N/NC(=N)N)s2)cc1: 3.9 µg/mL
- Cl.N=C(N)N/N=C/c1ccc(-c2ccc(F)cc2)s1: 1.56 µg/mL
- C[C@@H](c1ncncc1F)[C@](O)(Cn1cncn1)c1ccc(F)cc1F: 0.25 µg/mL

====

# Organism: Danio rerio
# experiment notes: Toxicity against zebrafish embryo assessed as teratogenic embryos at 5 ug/ml measured at 96 hrs post fertilization by inverted microscopic analysis
# Type: organism-based
# experimental conditions: in vivo
Measured Activity values are reported for all entries that follow.
endpoint label: Activity (%)

* Cl.N=C(N)N/N=C/c1ccc(-c2ccc(Br)cc2)s1 | 10
* C[C@@H](c1ncncc1F)[C@](O)(Cn1cncn1)c1ccc(F)cc1F | 20
* Cc1ccc(-c2ccc(/C=N/NC(=N)N)s2)cc1.Cl | 80
* Cl.Cl.N=C(N)N/N=C/c1ccc(-c2ccc(/C=N/NC(=N)N)s2)cc1 | 0

====

# Test system: Danio rerio
# experiment notes: Toxicity against zebrafish embryo assessed as yolk edema at 5 ug/ml measured at 96 hrs post fertilization by inverted microscopic analysis
# Type: organism-based
# experimental conditions: in vivo
Measured Activity values are reported for all entries that follow.
endpoint label: Activity

• Cl.N=C(N)N/N=C/c1ccc(-c2ccc(Br)cc2)s1 = 0%
• C[C@@H](c1ncncc1F)[C@](O)(Cn1cncn1)c1ccc(F)cc1F = 100%
• Cc1ccc(-c2ccc(/C=N/NC(=N)N)s2)cc1.Cl = 0%
• Cl.Cl.N=C(N)N/N=C/c1ccc(-c2ccc(/C=N/NC(=N)N)s2)cc1 = 0%

====

# Species on record: Danio rerio
# experiment notes: Toxicity against zebrafish embryo assessed as normal embryos at 25 ug/ml measured at 96 hrs post fertilization by inverted microscopic analysis
# Assay type: organism-based
# experimental conditions: in vivo
endpoint label: Activity (%)

- Cc1ccc(-c2ccc(/C=N/NC(=N)N)s2)cc1.Cl: 0
- C[C@@H](c1ncncc1F)[C@](O)(Cn1cncn1)c1ccc(F)cc1F: 0
- Cl.N=C(N)N/N=C/c1ccc(-c2ccc(Br)cc2)s1: 0
- Cl.Cl.N=C(N)N/N=C/c1ccc(-c2ccc(/C=N/NC(=N)N)s2)cc1: 96.67
